# protocol-text: in vitro
# experimental-conditions: human, liver microsomes
quantity: remaining at 0.5 h (%)
State just the number; it will be interpreted in %.

### Prompt Requested field: remaining at 0.5 h. Item: CC(C1=NOC(C)(C(=O)N[C@@H](Cc2ccc(NC(=O)c3c(Cl)cccc3Cl)cc2)C(=O)O)C1)c1ccccc1 (stereo partly specified)
### Response 95

---

# protocol-text: in vitro
# experimental-conditions: rat, liver microsomes
quantity: remaining at 0.5 h (%)
State just the number; it will be interpreted in %.

### Prompt Requested field: remaining at 0.5 h. Item: CC(C1=NOC(C)(C(=O)N[C@@H](Cc2ccc(NC(=O)c3c(Cl)cccc3Cl)cc2)C(=O)O)C1)c1ccccc1 (stereo partly specified)
### Response 84.5
